Target: LIMK1 (Homo sapiens)
Construct: purchased Thermo Fisher Scientific (SelectScreen Kinase assay service)
Sequence (P53667 whole entry): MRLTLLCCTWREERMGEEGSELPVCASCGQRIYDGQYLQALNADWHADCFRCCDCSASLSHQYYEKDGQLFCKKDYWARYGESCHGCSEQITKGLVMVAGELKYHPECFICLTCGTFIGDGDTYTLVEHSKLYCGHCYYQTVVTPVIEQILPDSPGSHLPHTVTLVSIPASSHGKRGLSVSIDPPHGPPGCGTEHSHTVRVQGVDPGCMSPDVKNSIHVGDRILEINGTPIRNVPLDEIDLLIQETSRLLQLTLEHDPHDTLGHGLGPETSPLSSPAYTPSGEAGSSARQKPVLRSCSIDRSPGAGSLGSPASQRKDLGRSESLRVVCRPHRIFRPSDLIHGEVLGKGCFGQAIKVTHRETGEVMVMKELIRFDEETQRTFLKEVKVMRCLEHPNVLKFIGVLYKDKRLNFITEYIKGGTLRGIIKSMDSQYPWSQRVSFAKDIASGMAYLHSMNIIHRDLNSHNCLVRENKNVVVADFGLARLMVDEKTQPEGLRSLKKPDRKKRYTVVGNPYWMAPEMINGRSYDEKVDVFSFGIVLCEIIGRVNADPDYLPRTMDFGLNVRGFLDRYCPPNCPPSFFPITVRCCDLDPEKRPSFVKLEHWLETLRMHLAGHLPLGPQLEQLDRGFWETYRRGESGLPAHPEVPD
Assay: LanthaScreen Eu kinase binding assay (SelectScreen), LIMK1 inhibition
Settings: compound at 10 μM, average of two replicates, read-out: Inhibition percentage at 10 μM
Quick rule: inhibition at 10 µM of at least 80% means Y, below that means N.

MOLECULE: O=C(/C=C/c1ccc(O)c(F)c1)CCCCc1ccccc1 [Compound X]
LABEL_VALUE: N
--
MOLECULE: O=C(/C=C/c1cccc(O)c1)CCCCc1ccccc1 [IX]
LABEL_VALUE: N
--
MOLECULE: O=C(/C=C/c1ccc(O)c(O)c1)CCCCc1ccccc1O [Compound 7a]
LABEL_VALUE: Y
--
MOLECULE: O=C(/C=C/c1ccc(O)c(O)c1)CCCCc1cccc(O)c1 [Compound 7b]
LABEL_VALUE: Y
--
MOLECULE: O=C(/C=C/c1ccc(O)c(O)c1)Cc1ccccc1 [IV]
LABEL_VALUE: N
--
MOLECULE: O=C(/C=C/c1ccc(O)cc1)CCCCc1ccccc1 [VIII]
LABEL_VALUE: N
--
MOLECULE: O=C(/C=C/c1ccc(O)c(O)c1)CCCCn1ccc2c(O)cccc21 [Compound 13a]
LABEL_VALUE: Y
--
MOLECULE: COc1cc(/C=C/C(=O)CCCCc2ccccc2)ccc1O [XIV]
LABEL_VALUE: N
--
MOLECULE: COCOc1cccc2c1ccn2CCCCC(=O)/C=C/c1ccc(O)c(O)c1 [Compound 15]
LABEL_VALUE: Y
--
MOLECULE: O=C(CCCCc1ccccc1)CCc1ccc(O)c(O)c1 [II]
LABEL_VALUE: N
--
MOLECULE: O=C(CCCCc1cccc(O)c1)CCc1ccc(O)c(O)c1 [Compound 8b]
LABEL_VALUE: N
--
MOLECULE: O=C(CCCCn1ccc2c(O)cccc21)CCc1ccc(O)c(O)c1 [Compound 14a]
LABEL_VALUE: N
--
MOLECULE: O=C(/C=C/c1ccccc1)CCCCc1ccccc1 [Compound VII]
LABEL_VALUE: N
